Relative Proliferation Fold Change 3F8 1:2 for assorted binders
# Subject Of Test: T1, orthogonal hCD122 receptor (hoRb), hCD122 with H133D and Y134F (human, UniProt P14784 27-550)
# T1 sequence: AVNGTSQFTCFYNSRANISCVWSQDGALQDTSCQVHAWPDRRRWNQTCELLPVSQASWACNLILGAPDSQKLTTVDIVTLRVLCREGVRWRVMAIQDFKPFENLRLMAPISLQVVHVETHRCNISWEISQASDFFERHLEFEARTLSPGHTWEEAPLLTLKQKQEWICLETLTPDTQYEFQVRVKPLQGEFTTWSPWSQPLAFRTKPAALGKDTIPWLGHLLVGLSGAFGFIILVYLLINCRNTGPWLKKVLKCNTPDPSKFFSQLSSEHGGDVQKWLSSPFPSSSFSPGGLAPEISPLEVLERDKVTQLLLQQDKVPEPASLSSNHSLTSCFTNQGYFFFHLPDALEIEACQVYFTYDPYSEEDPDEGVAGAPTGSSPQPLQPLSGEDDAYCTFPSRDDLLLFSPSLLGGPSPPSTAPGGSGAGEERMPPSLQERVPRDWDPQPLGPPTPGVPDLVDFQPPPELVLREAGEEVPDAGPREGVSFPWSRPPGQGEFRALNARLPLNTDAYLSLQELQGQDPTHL
# Protocol: cell-based or functional assay; further: reference of the scale not given here
Dear colleague, please return just the value in fold, with no unit written.

Example binders with recorded Relative Proliferation Fold Change 3F8 1:2:
[[record]]
binder = "L80V, SQVLKA (ligand) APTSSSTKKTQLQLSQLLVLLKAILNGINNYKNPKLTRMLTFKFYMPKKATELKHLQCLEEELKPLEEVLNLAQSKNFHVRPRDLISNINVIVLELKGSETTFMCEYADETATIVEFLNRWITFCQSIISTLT"
unit_descriptor = "fold"
result_value = 30.6

[[record]]
binder = "L18T, SQVLKA (ligand) APTSSSTKKTQLQLSQLTVLLKAILNGINNYKNPKLTRMLTFKFYMPKKATELKHLQCLEEELKPLEEVLNLAQSKNFHLRPRDLISNINVIVLELKGSETTFMCEYADETATIVEFLNRWITFCQSIISTLT"
unit_descriptor = "fold"
result_value = 2.05

[[record]]
binder = "SQVLWA (ligand) APTSSSTKKTQLQLSQLLVLLWAILNGINNYKNPKLTRMLTFKFYMPKKATELKHLQCLEEELKPLEEVLNLAQSKNFHLRPRDLISNINVIVLELKGSETTFMCEYADETATIVEFLNRWITFCQSIISTLT"
unit_descriptor = "fold"
result_value = 14.6

[[record]]
binder = "V91R, SQVLKA (ligand) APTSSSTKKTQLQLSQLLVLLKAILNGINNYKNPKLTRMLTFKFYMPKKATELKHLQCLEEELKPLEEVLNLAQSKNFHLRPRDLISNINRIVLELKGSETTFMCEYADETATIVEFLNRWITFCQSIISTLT"
unit_descriptor = "fold"
result_value = 35.6

[[record]]
binder = "T3A, SQVLKA (ligand) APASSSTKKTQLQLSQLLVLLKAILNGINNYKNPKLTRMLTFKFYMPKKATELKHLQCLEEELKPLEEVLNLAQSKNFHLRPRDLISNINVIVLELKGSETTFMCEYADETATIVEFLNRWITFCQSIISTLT"
unit_descriptor = "fold"
result_value = 17.1


Could you tell me which Relative Proliferation Fold Change 3F8 1:2 is on file for SQVLDA (ligand) APTSSSTKKTQLQLSQLLVLLDAILNGINNYKNPKLTRMLTFKFYMPKKATELKHLQCLEEELKPLEEVLNLAQSKNFHLRPRDLISNINVIVLELKGSETTFMCEYADETATIVEFLNRWITFCQSIISTLT ? 43

Could you tell me which Relative Proliferation Fold Change 3F8 1:2 is on file for ΔP2, SQVLKA (ligand) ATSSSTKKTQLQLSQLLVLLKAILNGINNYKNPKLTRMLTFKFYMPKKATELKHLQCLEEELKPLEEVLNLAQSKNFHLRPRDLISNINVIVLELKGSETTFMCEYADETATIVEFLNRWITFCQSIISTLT ? 34.2

Could you tell me which Relative Proliferation Fold Change 3F8 1:2 is on file for M104A, SQVLKA (ligand) APTSSSTKKTQLQLSQLLVLLKAILNGINNYKNPKLTRMLTFKFYMPKKATELKHLQCLEEELKPLEEVLNLAQSKNFHLRPRDLISNINVIVLELKGSETTFACEYADETATIVEFLNRWITFCQSIISTLT ? 24.4
